- tested system: human melanocortin 1 receptor (human, UniProt Q01726 1-317)
- Sequence (Q01726 whole entry): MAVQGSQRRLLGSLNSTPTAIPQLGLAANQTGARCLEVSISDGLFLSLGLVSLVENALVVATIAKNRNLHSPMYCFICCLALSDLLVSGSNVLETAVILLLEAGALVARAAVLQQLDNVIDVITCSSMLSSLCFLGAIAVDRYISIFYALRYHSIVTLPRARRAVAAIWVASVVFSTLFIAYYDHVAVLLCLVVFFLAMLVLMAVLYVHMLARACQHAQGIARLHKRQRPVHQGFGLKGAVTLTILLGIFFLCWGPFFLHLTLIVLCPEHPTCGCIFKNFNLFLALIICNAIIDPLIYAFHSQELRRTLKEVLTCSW
- assay text: cell-based or functional assay
Positions of bridges follow the written chain, without caps; N, C: chain ends. Non-standard residues stand in square brackets, D forms with d. Phe(4-CN) = N#Cc1ccc(C[C@H](N)C(=O)O)cc1
Listed binders paired with reported MC1R cAMP EC50
Provide only the numeric value, understood in nM.

cyclo(CAH[dF]R[Phe(4-CN)]CAKKKW) (disulfide 1-7; SMILES C[C@@H]1NC(=O)[C@@H]2CSSC[C@H](NC(=O)[C@H](Cc3ccc(C#N)cc3)NC(=O)[C@H](CCCNC(=N)N)NC(=O)[C@@H](Cc3ccccc3)NC(=O)[C@H](Cc3c[nH]cn3)NC1=O)C(=O)N[C@@H](C)C(=O)N[C@@H](CCCCN)C(=O)N[C@@H](CCCCN)C(=O)N[C@@H](CCCCN)C(=O)N[C@@H](Cc1c[nH]c3ccccc13)C(=O)N2, also called c[c[Cys-Ala-His-D-Phe-Arg-4-CN-Phe-Cys]-Ala-Lys-Lys-Lys-Trp]) [Chem. 65] ... 10.8

Query: Find the measured MC1R cAMP EC50 of cyclo(CPH[dF]HWCAKKKR) (disulfide 1-7; SMILES C[C@@H]1NC(=O)[C@@H]2CSSC[C@H](NC(=O)[C@H](CCCNC(=N)N)NC(=O)[C@H](CCCCN)NC(=O)[C@H](CCCCN)NC(=O)[C@H](CCCCN)NC1=O)C(=O)N1CCC[C@H]1C(=O)N[C@@H](Cc1c[nH]cn1)C(=O)N[C@H](Cc1ccccc1)C(=O)N[C@@H](Cc1c[nH]cn1)C(=O)N[C@@H](Cc1c[nH]c3ccccc13)C(=O)N2, also called c[c[Cys-Pro-His-D-Phe-His-Trp-Cys]-Ala-Lys-Lys-Lys-Arg]) [Chem. 71] and report it.
Reply: 33.2
